Test: Sorafenib plasma pharmacokinetics in patients, with and without erlotinib
Assay type: in vivo, human
Details: human, plasma, oral
measuredMetric: Tmax (h)
Numeric answer only, unit h assumed.

Please give the documented Tmax of CNC(=O)c1cc(Oc2ccc(NC(=O)Nc3ccc(Cl)c(C(F)(F)F)c3)cc2)ccn1
4

###

Assay: Sorafenib plasma pharmacokinetics in patients, with and without erlotinib
Format: in vivo, human
Conditions: human, plasma, oral, 400 mg bid
measuredMetric: Tmax (h)
Numeric answer only, unit h assumed.

Please give the documented Tmax of CNC(=O)c1cc(Oc2ccc(NC(=O)Nc3ccc(Cl)c(C(F)(F)F)c3)cc2)ccn1 [sorafenib]
4.2

###

Experiment: Sorafenib plasma pharmacokinetics in patients, with and without erlotinib
Format: in vivo, human
Conditions: human, plasma, oral
measuredMetric: Cmax (ng/mL)
Numeric answer only, unit ng/mL assumed.

Please give the documented Cmax of CNC(=O)c1cc(Oc2ccc(NC(=O)Nc3ccc(Cl)c(C(F)(F)F)c3)cc2)ccn1 [sorafenib]
8600

###

Assay: Sorafenib plasma pharmacokinetics in patients, with and without erlotinib
Assay type: in vivo, human
Conditions: human, plasma, oral, 400 mg bid
measuredMetric: Cmax (ng/mL)
Numeric answer only, unit ng/mL assumed.

Please give the documented Cmax of CNC(=O)c1cc(Oc2ccc(NC(=O)Nc3ccc(Cl)c(C(F)(F)F)c3)cc2)ccn1
8600
